Source of measurements: patent US20260207704A1

target_under_test: beta-catenin (human)
Sequence (B6V8E6 146-665 limits assumed): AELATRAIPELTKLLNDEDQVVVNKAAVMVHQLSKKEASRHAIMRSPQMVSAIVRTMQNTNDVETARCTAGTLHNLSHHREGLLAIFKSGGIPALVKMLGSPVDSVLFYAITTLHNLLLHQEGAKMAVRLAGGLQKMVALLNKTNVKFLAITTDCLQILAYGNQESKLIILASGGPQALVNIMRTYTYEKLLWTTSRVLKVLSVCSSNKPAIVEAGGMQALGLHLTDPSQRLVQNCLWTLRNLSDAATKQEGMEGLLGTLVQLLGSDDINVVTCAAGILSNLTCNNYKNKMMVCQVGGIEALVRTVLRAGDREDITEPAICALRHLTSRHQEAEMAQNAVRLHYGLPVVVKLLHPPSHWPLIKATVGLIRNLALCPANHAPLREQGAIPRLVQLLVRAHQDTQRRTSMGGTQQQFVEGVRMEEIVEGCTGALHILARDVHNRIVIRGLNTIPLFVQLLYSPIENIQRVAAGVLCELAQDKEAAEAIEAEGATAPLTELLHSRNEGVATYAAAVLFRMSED
measurement_notes: fluorescence polarization
*1 amine or outer side, *2 acyl side, *3 side chain or, on linkers, in order; H or OH if unused. Bridges are numbered along the chain shown (N, C = ends). Primed or numbered codes have the meaning given here. [ ]: non-standard residue; d: D form. B5(4) = 2-amino-2-(pent-4-en-1-yl)hept-6-enoic acid, stapled through each of its two olefin groups with other olefin-containing amino acid residues, O=C(C(CCCC=[*:3])(CCCC=[*:4])N[*:1])[*:2]; PyrS2″ = (S)-3-amino-1-((pent-4-en-1-yloxy)carbonyl)pyrrolidine-3-carboxylic acid (olefin stapling residue), C=CCCCOC(=O)N1CC[C@@](N[*:1])(C(=O)[*:2])C1; 2F3MeF″ = aromatic residue, Cc1cccc(C[C@H](N[*:1])C(=O)[*:2])c1F; Phe(3-COOH) = N[C@@H](Cc1cccc(C(=O)O)c1)C(=O)O; Bta = N[C@@H](Cc1csc2ccccc12)C(=O)O; αAllylPro = C=CC[C@@]1(C(=O)O)CCCN1; tBuAla = CC(C)(C)C[C@H](N)C(=O)O; 3Thi = N[C@@H](Cc1ccsc1)C(=O)O; hSer = N[C@@H](CCO)C(=O)O; BztA″ = aromatic residue; Nle = CCCC[C@H](N)C(=O)O; GlnR = not defined here; PL3 = not defined here; B5 = not defined here
test_readout: IC50

Find the measured IC50 of Ac-[PL3]DL[B5(4)]DDAAF[dK][PyrS2″][3Thi][Bta][GlnR]-NH2 (bridge 10-14; not fully specified (bridges); printed as Ac-PL3-Asp-Leu-B5-Asp-Asp-Ala-Ala-Phe-dLys*3-PyrS2-3Thi-BztA-GlnR*3-NH2; reading uncertain) [I-2] and report it.
< 50 nM

Others:
Return the recorded IC50 value; entry: Ac-[αAllylPro][hSer][tBuAla][B5]D[Phe(3-COOH)][Nle]AFK[PyrS2″][2F3MeF″][BztA″][GlnR]LS-NH2 (bridge 10-14; not fully specified (bridges); printed as Ac-PL3-Hse-Npg-B5-Asp-3COOHF-nLeu-Ala-Phe-Lys*3-PyrS2-2F3MeF-BztA-GlnR*3-Leu-Ser-NH2; reading uncertain; also: Lys10 and GlnR14 marked *3) [I-146]
> 1000 nM
